Assay: water solubility test
Format: physicochemical
Conditions: 25° C.±2° C., visual clarity, 5 mg sample, max 100 mL water
Entries annotated with measured Solubility
Assay Endpoint: Solubility (µg/mL)

{"Molecule": "Cc1cccc(-c2nn3c(c2-c2ccnc4ccc(C(N)=O)cc24)CCC3)n1 [LY2157299 Form 1]", "Assay Endpoint": "Solubility", "Relation Operator": "=", "Endpoint Result": 160}
{"Molecule": "Cc1cccc(-c2nn3c(c2-c2ccnc4ccc(C(N)=O)cc24)CCC3)n1 [LY2157299 Form 3]", "Assay Endpoint": "Solubility", "Relation Operator": "=", "Endpoint Result": 150}
{"Molecule": "Cc1cccc(-c2nn3c(c2-c2ccnc4ccc(C(N)=O)cc24)CCC3)n1 [LY2157299 Form 4]", "Assay Endpoint": "Solubility", "Relation Operator": "=", "Endpoint Result": 100}
{"Molecule": "Cc1cccc(-c2nn3c(c2-c2ccnc4ccc(C(N)=O)cc24)CCC3)n1 [LY2157299 Form 2]", "Assay Endpoint": "Solubility", "Relation Operator": "=", "Endpoint Result": 200}
{"Molecule": "Cc1cccc(-c2nn3c(c2-c2ccnc4ccc(C(N)=O)cc24)CCC3)n1 [LY2157299 Form 7]", "Assay Endpoint": "Solubility", "Relation Operator": "=", "Endpoint Result": 100}
{"Molecule": "Cc1cccc(-c2nn3c(c2-c2ccnc4ccc(C(N)=O)cc24)CCC3)n1 [LY2157299 Monohydrate]", "Assay Endpoint": "Solubility", "Relation Operator": "<", "Endpoint Result": 50}
